Just for reference, PubChem BioAssay (NCI) is where these values come from.

assay: NCI Yeast Anticancer Drug Screen. Data for the rad50 strain (AID 155);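 also: 0% = growth of vehicle-only cultures of the same strain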; conditions: S. cerevisiae rad50 strain growth inhibition; at 50.0 µM; active compounds read high
This is part of a sample that, as a whole, favours compounds with a hit. Of some 79,000 tested, about 15% had one in any assay.
Measured attribute: growth inhibition (%)

- S=C(Cc1cccc2ccccc12)N1CCN(c2ccc(Cl)cc2)CC1: -17
- N#Cc1ccc(CCc2ccc(Cl)cc2)cc1: -6.85
- Cc1cc2c(C(C)C)c(O)c(O)c(C=NCc3ccc(Br)cc3)c2c(O)c1-c1c(C)cc2c(C(C)C)c(O)c(O)c(C=NCc3ccc(Br)cc3)c2c1O: -5.6
- CC(=O)NNc1nc(C)c(C(=O)NNC(=O)C(=O)Nc2ccc(Cl)cc2)s1: 27
- O=C1OC2C(O1)C1(c3ccccc3)OC2(c2ccccc2)c2ccccc21 (stereo unspecified): -5.9
- C/C(CC(=O)CCC(=O)Nc1cccc(C(F)(F)F)c1)=N\NC(=O)NN: -25.8

====

assay: NCI Yeast Anticancer Drug Screen. Data for the cln2 rad14 strain (AID 165);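 also: 0% = growth equal to vehicle treated cultures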; settings: S. cerevisiae cln2 rad14 strain, at 50.0 µM, active compounds read high
Compounds without any hit were thinned out: in the full panel of roughly 79,000, 15% have a hit. Activity calls are given as the source filed them. Rule as the data show it: active = growth inhibition above about 70%; inactive = the rest.
Below, each entry is listed alongside its reported growth inhibition.
Measured attribute: growth inhibition

- COC(OC)c1ccccc1CO: -41.5% (inactive)
- O=C(/C(=N/O)c1ccc(Cl)cc1)c1ccccc1: 99% (active)
- COc1ccc2c(c1)OC1(OCCO1)[C@@H]1C2CC[C@@]2(C)C1CCC21OCCO1 (stereo partly specified): 28.8% (inactive)
- Cc1cc(Cc2cc(Cc3cc(C)cc(C(C)(C)C)c3O)c(C)cc2C)c(O)c(C(C)(C)C)c1: -1.75% (inactive)
- CCC(C(=O)c1ccccc1)c1cccc2c1N(C(C)=O)CC2 (stereo unspecified): -5.6% (inactive)
- O=C1/C=C2/C=CC=CN2C(=O)/C=C2/C=CC=CN12: 1.65% (inactive)
- Cc1nn(C(=O)c2ccncc2)c2c1C(c1ccccc1)SC(N)=N2 (stereo unspecified): 9.55% (inactive)
- CC(C)N(CC(=O)NC(=O)c1ccccc1)C(C)C: -32.9% (inactive)
- CCN1CCCC(Nc2nc(Nc3ccc(Cl)c(Cl)c3)nc3ccc(Cl)cc23)C1 (stereo unspecified): 99.5% (active)
- [O-]c1on[n+](-c2ccccc2)c1CN1CCOCC1: -45% (inactive)
- O=C(O)C1=C(C(=O)O)C2CCC1C2: 2.65% (inactive)

====

Below, each entry is listed alongside its reported growth inhibition.
test: NCI Yeast Anticancer Drug Screen. Data for the mlh1 rad18 strain (AID 175); settings: S. cerevisiae mlh1 rad18 strain growth inhibition; at 50.0 µM; active compounds read high
The panel holds about 79,000 compounds, 15% with a hit somewhere; the sample as a whole holds those more often. Active and inactive are the calls of the source. No stated cut-off is given here; in the data, active means growth inhibition above about 70%; inactive means the rest.
Measured attribute: growth inhibition

• COCOc1ccc(C=O)cc1 = -5.65% (inactive)
• O=S1(=O)CC(N2CCCCC2)C2=C(O1)c1ccccc1N(c1ccccc1)C2 (centres undefined) = -26.1% (inactive)
• CCCC(=O)N[C@H]1C2C3CC4C5CC(C42)C1(C)C53 (some centres undefined) = -17.2% (inactive)
• O=C(Oc1ccc([N+](=O)[O-])cc1)C1CCCN1C(=O)OCc1ccccc1 (centres undefined) = 0.15% (inactive)
• CC(=O)Nc1ccc[n+](CC(=O)c2ccc(F)cc2)c1 = 8.65% (inactive)
• COc1ccc([N+](=O)[O-])c2c(C)cc(=O)[nH]c12 = 35.7% (inactive)
• COC1/C=C/C(C)C(C(C)C(OC)C(C)CCC(=O)C(C)C(C/C=C/N(C)C=O)OC)OC(=O)/C=C/C=C(\C)CC(OC)C(OC)C2=CC(=O)O[C@@H](C(C)C(OC)CC(OC)/C=C/C(C)C(O)C1)[C@H]2O (some centres undefined) = 91% (active)
• CC(=O)Nc1ncc(Br)s1 = 5.3% (inactive)
• Cc1cc(C)c(/C=C/c2c(C)cc(C)cc2C)c(C)c1 = -0.5% (inactive)
• Clc1ccc2sc(-n3ccc4ccccc43)nc2c1 = -30.7% (inactive)
• CCCC(CC)C(=O)NC(N)=O (centres undefined) = 8.7% (inactive)
• C=CC1(c2ccc(Cl)c(Cl)c2)OCCO1 = 25.4% (inactive)
• Cc1ncc(CO)c(Nc2ccccc2)n1 = 8.4% (inactive)
• CCOC(OCC)c1ccccc1C = 20.4% (inactive)
• N#CCCN(CCC#N)Cc1ccc2c(O)c(CN(CCC#N)CCC#N)ccc2c1O = 3.65% (inactive)
• COc1ccc(C(=Nc2ccc(C)cc2)c2ccccc2)cc1 = -15.6% (inactive)
• O=[N+]([O-])c1ccc(/C=N\N=P(c2ccccc2)(c2ccccc2)c2ccccc2)cc1 = -3.85% (inactive)
• C=C1c2cc3c(cc2CC12Cc1cc4c(cc1C2=O)CCC4)CCC3 (centres undefined) = 16% (inactive)
• CCOC(=O)C(C(=O)OCC)c1cnc2ccccc2c1Cl = 2.85% (inactive)
• COc1ccc(-c2c(C#N)c(N)nc(C)c2-c2ccccc2)cc1 = 16.9% (inactive)
• CC(=O)N(C1CCCCC1)C1CCCCC1 = 45% (inactive)
• Cc1ccc(F)c2[nH]c(-c3ccccc3)cc(=O)c12 = 12% (inactive)
• CCOC(=O)C1CSC(N)=N1 (centres undefined) = -7.8% (inactive)
• COc1ccc(C(=O)N=C(N)n2nc(C)cc2C)cc1 = -0.75% (inactive)
